Quick list: solubility per entry.
METHOD DESCRIPTION: Assessment of solubility: HT solubility in pION buffer, UV spectrophotometry
TEST CONDITIONS: pION system solution buffer, pH 7.4, pH 7.4, aqueous buffer, kinetic from dmso stock, Solubility (pH 7.4), pH 7.4 buffer, 16-19 h incubation, 1.0% DMSO
# value in µg/mL; strip the unit string

- COMPOUND: "Cc1ccc(OCc2ccc(C(=O)N3CCOCC3)cc2C)c(-c2csc(N3C[C@H]4CC[C@@H](C3)[C@H]4C(=O)O)n2)c1"
  DATA VALUE: 38
- COMPOUND: "Cc1ccc(OCc2ccc(CN3CCOCC3)cc2C)c(-c2csc(N3CCC(C(=O)O)C(C(F)(F)F)C3)n2)c1 (stereo not shown)"
  DATA VALUE: 41

Pending compound:
What the record says about `Cc1cc(CN2CCOCC2)ccc1COc1ccc(Cl)cc1-c1csc(N2CCC(C(=O)O)CC2)n1` : solubility is 32

====

METHOD DESCRIPTION: Assessment of solubility: HT solubility in pION buffer, UV spectrophotometry
TEST CONDITIONS: pION system solution buffer, pH 7.4, pH 7.4, aqueous buffer, kinetic from dmso stock, Solubility (pH 7.4), pH 7.4 buffer, 16-19 h incubation, 1.0% DMSO
OUTCOME MEASURE: solubility

Answered examples (3):
- COMPOUND: "Cc1cc(CN2CCS(=O)(=O)CC2)ccc1COc1ccc(C#N)cc1-c1csc(N2CCC(C(=O)O)C(C)C2)n1 (stereo not shown)"
  solubility: "> 59 µg/mL"
- COMPOUND: "Cc1cc(CN2CCS(=O)(=O)CC2)ccc1COc1ccc(Cl)cc1-c1csc(N2CCC(C(=O)O)CC2C)n1 (stereo not shown)"
  solubility: "36 µg/mL"
- COMPOUND: "Cc1ccc(OCc2ccc(CN3CCS(=O)(=O)CC3)cc2C)c(-c2csc(N3C4CCC3CC(C(=O)O)C4)n2)c1 (stereo not shown)"
  solubility: "> 59 µg/mL"

What the record says about Cc1cc(C(=O)N2CCCCC2)ccc1COc1ccc(Cl)cc1-c1csc(N2CC3CCC(C2)C3C(=O)O)n1 (stereo not shown) : solubility is 21 µg/mL

What the record says about `COCCN(C)C(=O)c1ccc(COc2ccc(C)cc2-c2csc(N3C[C@H]4CC[C@@H](C3)[C@H]4C(=O)O)n2)c(C)c1` : solubility is > 58 µg/mL

What the record says about Cc1cc(C(=O)N2CCCCC2)ccc1COc1ccccc1-c1csc(N2CCC(C(=O)O)CC2C)n1 (stereo not shown) : solubility is > 53 µg/mL

What the record says about `Cc1ccc(OCc2ccc(CN3C[C@@H]4C[C@H]3CO4)cc2C#N)c(-c2csc(N3C[C@H]4CC[C@@H](C3)[C@H]4C(=O)O)n2)c1` : solubility is > 54 µg/mL

====

Quick list: EC50 per entry.
TARGET: Recombinant human soluble guanylate cyclase (sGC), alpha 1 / beta 1 subunits, heme-free (Homo sapiens, UniProt Q02108+Q02153)
Construct: histidine tag (C); made in house; host or cells: Sf9 insect cells (baculovirus coinfection)
Sequence (Q02108 1-690 partner): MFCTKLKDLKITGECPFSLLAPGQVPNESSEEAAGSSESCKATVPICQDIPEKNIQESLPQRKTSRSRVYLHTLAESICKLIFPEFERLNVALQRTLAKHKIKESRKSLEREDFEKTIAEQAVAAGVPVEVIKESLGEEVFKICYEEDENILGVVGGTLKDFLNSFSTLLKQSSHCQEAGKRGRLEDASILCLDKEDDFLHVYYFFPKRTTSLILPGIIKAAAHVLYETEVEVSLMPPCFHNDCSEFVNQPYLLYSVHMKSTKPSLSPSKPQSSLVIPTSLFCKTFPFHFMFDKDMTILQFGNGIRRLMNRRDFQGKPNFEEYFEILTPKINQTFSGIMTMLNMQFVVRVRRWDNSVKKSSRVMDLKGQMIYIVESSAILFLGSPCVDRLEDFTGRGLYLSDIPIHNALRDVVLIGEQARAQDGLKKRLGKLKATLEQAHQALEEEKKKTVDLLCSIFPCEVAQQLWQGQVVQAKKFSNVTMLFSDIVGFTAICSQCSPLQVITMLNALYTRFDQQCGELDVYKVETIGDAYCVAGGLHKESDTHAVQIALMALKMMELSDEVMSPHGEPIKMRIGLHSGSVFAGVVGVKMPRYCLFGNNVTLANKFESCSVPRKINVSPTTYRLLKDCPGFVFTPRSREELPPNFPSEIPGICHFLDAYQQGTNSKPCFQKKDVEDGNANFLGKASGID
Sequence (Q02153 1-619): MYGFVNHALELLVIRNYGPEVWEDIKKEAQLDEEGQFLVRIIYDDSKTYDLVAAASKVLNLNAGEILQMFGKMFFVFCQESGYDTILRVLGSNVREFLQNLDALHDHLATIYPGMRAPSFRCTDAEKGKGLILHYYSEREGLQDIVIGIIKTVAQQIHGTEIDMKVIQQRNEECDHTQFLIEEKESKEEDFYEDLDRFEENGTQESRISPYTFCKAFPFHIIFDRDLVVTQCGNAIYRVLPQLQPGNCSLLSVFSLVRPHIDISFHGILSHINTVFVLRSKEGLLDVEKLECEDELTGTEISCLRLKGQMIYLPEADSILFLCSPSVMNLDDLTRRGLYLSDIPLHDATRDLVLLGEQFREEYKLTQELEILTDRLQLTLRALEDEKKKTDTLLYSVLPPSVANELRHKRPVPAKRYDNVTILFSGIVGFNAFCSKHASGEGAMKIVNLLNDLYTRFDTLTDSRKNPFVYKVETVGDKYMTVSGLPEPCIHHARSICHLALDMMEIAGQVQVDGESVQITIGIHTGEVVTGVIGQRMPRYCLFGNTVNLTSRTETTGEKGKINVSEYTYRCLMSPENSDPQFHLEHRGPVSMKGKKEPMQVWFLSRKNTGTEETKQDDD
METHOD DESCRIPTION: Molecular assay: cGMP formation by heme-free recombinant sGC (CisBio cGMP detection kit)
Assay type: biochemical
TEST CONDITIONS: 300 pM heme-free sGC, 37° C., 60 min, cGMP readout; read-out: EC50 nM, Activity of Compounds in Molecular Assay

Answered examples (3):
- COMPOUND: "N#Cc1cc(CN2CCS(=O)(=O)CC2)ccc1COc1c(Cl)cccc1-c1csc(N2CCC(C(=O)O)CC2)n1 [Compound 140]"
  EC50: "79 nM"
- COMPOUND: "Cc1cc(CN2CCS(=O)(=O)CC2)ccc1COc1ccc(Cl)cc1-c1csc(N2CC3CCC(C2)C3C(=O)O)n1 (stereo not shown) [Compound 211]"
  EC50: "370 nM"
- COMPOUND: "Cc1cc(C(=O)N2CCCCC2)ccc1COc1ccc(F)cc1-c1csc([C@H]2CC[C@H](C(=O)O)CC2)n1 [Compound 57]"
  EC50: "1800 nM"

What the record says about Cc1cc(CN2CCOCC2)ccc1COc1ccc(F)cc1-c1csc(N2C3CCC2CC(C(=O)O)C3)n1 (stereo not shown) [Compound 80] : EC50 is 740 nM

What the record says about CC(=O)N1CCN(Cc2ccc(COc3c(C)cccc3-c3csc(N4CCC(C(=O)O)CC4)n3)c(C)c2)CC1 [Compound 95] : EC50 is 35 nM

What the record says about Cc1cc(C(=O)N2CCCCC2)ccc1COc1ccccc1-c1csc(N2CCC(C(=O)O)CC2)n1 [Compound 17] : EC50 is 79 nM

What the record says about COCCN(C)Cc1ccc(COc2ccc(C)cc2-c2csc(N3CC[C@@H](C(=O)O)[C@@H](C)C3)n2)c(C#N)c1 [Compound 75] : EC50 is 600 nM
